molecular target: Sodium-dependent dopamine transporter (Rattus norvegicus); assay: Inhibition of high affinity uptake of [3H]DA using rat nerve endings obtained from brain regions enriched in DAT.
Below, each entry is listed alongside its reported pKi.
Quick note: pKi means taking -log10 of the concentration in moles per liter.

>>> recorded_value("CN1CC[C@@H](c2ccc(Cl)cc2)[C@H](c2nc(-c3ccccc3)no2)C1")
5.77

Next compound, please.
Prompt: Find the recorded pKi belonging to COC(=O)[C@@H]1CN(C)CC[C@H]1c1ccc(Cl)cc1 and report it.
Completion: 5.53

---

Dear all, this message contains Ki results, target or system UniProt P31652.

Prompt: Form field - read-out: Ki; system: UniProt P31652; submitted item: COc1ccc(-c2noc([C@H]3CN(C)CC[C@@H]3c3ccc(Cl)cc3)n2)cc1
Completion: > 3 µM

Prompt: Form field - read-out: Ki; system: UniProt P31652; submitted item: CN1CC[C@@H](c2ccc(Cl)cc2)[C@H](c2nc(-c3ccc4c(c3)OCO4)no2)C1
Completion: > 3 µM

Prompt: Form field - read-out: Ki; system: UniProt P31652; submitted item: COC(=O)[C@@H]1CN(C)CC[C@H]1c1ccc(Cl)cc1
Completion: 0.93 µM

Prompt: Form field - read-out: Ki; system: UniProt P31652; submitted item: COC(=O)[C@H]1CN(C)CC[C@@H]1c1ccc(Cl)cc1
Completion: 8.49 µM

Prompt: Form field - read-out: Ki; system: UniProt P31652; submitted item: COc1ccc(-c2noc([C@@H]3CN(C)CC[C@H]3c3ccc(Cl)cc3)n2)cc1
Completion: > 3 µM

---

biological target: Sodium-dependent serotonin transporter (Rattus norvegicus); experiment: Evaluated for ability to inhibit high affinity uptake of [3H]5-HT using rat nerve endings obtained from brain regions enriched in serotonin transporter (5HTT); format: functional
Sequence (P31652 whole entry): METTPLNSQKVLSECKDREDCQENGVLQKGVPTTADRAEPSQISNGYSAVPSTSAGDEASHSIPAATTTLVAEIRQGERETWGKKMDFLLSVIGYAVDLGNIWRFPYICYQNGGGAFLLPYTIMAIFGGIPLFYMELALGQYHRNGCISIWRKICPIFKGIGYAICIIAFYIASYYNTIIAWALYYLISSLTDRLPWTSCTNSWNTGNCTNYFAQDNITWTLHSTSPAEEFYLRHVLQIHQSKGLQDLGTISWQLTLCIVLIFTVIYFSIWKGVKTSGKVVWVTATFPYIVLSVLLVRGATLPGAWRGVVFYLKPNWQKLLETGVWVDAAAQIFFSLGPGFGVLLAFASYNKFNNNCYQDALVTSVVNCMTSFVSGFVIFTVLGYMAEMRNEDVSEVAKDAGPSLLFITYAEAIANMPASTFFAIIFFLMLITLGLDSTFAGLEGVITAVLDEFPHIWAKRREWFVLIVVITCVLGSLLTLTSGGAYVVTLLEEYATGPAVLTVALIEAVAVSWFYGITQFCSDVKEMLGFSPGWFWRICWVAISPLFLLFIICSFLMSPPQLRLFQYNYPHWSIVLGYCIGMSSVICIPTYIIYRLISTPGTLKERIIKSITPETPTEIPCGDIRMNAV
Value Type: IC50

>>> recorded_value("CN1CC[C@@H](c2ccc(Cl)cc2)[C@H](c2nc(-c3ccccc3)no2)C1")
"> 3 µM"

Next compound, please.
Prompt: Find the recorded IC50 belonging to CN1CC[C@H](c2ccc(Cl)cc2)[C@@H](c2nc(-c3ccccc3)no2)C1 and report it.
Completion: > 3 µM

---

target: Norepinephrine transporter (Rattus norvegicus, UniProt Q9WTR4); assay: Inhibitory concentration binding to Norepinephrine transporter using 0.2 nM […]; type: functional
Sequence (Q9WTR4 whole entry): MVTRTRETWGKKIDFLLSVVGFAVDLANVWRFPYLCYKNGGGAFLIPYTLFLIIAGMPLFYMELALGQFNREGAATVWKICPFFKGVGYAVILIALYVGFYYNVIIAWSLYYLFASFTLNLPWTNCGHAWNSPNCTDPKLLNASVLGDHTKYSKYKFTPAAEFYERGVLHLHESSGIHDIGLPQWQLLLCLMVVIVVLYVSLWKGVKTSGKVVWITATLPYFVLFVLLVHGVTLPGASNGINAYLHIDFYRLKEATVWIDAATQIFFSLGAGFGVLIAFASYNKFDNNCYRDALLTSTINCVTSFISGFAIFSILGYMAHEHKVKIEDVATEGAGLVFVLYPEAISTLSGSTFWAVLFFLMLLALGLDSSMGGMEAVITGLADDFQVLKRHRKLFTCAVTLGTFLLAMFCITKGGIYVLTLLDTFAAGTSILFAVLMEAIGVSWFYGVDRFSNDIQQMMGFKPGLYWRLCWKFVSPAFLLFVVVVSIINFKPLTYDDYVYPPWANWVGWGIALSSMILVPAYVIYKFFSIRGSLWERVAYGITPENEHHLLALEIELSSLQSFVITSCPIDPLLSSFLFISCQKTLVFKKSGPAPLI
Value Type: pIC50
Quick note: pIC50 means taking -log10 of the concentration in moles per liter.

Prompt: Form field - read-out: pIC50; system: Norepinephrine transporter (Rattus norvegicus, UniProt Q9WTR4); submitted item: CN1CC[C@H](c2ccc(Cl)cc2)[C@@H](c2nc(-c3ccc(Cl)cc3)no2)C1
Completion: 5.39

---

biological target: Norepinephrine transporter (Rattus norvegicus); experiment: Evaluated for ability to inhibit high affinity uptake of [3H]-NE using rat nerve endings obtained from brain regions enriched in Norepinephrine transporter; assay type: functional
Value Type: IC50

>>> recorded_value("CN1CC[C@H](c2ccc(Cl)cc2)[C@@H](c2nc(-c3ccccc3)no2)C1")
"> 10 µM"

Next compound, please.
Prompt: Find the recorded IC50 belonging to CN1CC[C@@H](c2ccc(Cl)cc2)[C@H](c2nc(-c3ccccc3)no2)C1 and report it.
Completion: > 3 µM

---

molecular target: Sodium-dependent dopamine transporter (Rattus norvegicus); experiment: Inhibitory concentration binding to dopamine transporter using 0.5 nM [3H]WIN-35428
Value Type: IC50 (nM)
Please give a number only; it is taken to be in nM.

Prompt: Find the recorded IC50 belonging to CN1CC[C@H](c2ccc(Cl)cc2)[C@@H](c2nc(-c3ccc(Cl)cc3)no2)C1 and report it.
Completion: 4.06

---

Below, each entry is listed alongside its reported pKi.
target: Sodium-dependent dopamine transporter (Rattus norvegicus, UniProt P23977); test: Inhibition of high affinity uptake of [3H]DA using rat nerve endings obtained from brain regions enriched in DAT.
Sequence (P23977 whole entry): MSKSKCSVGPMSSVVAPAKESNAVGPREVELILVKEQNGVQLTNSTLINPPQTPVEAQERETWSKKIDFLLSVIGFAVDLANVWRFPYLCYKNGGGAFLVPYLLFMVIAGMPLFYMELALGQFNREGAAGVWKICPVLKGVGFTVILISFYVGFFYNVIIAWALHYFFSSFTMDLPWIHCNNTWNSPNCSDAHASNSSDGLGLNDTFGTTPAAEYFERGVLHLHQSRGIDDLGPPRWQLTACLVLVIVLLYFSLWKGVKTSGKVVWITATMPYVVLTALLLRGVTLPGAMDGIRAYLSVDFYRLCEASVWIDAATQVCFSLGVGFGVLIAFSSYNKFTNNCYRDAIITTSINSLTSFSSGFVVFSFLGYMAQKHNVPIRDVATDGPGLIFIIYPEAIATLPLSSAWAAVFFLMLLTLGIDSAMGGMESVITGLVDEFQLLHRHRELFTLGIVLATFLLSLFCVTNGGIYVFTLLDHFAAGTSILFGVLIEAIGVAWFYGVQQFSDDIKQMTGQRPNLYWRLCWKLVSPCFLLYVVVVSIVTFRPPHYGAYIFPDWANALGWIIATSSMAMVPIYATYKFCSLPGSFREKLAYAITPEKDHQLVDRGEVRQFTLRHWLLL
Quick note: pKi means taking -log10 of the concentration in moles per liter.

>>> recorded_value("Cc1noc([C@H]2CN(C)CC[C@@H]2c2ccc(Cl)cc2)n1")
6.73
>>> recorded_value("CC(C)c1noc([C@H]2CN(C)CC[C@@H]2c2ccc(Cl)cc2)n1")
6.41
>>> recorded_value("CC(C)c1noc([C@@H]2CN(C)CC[C@H]2c2ccc(Cl)cc2)n1")
5.44
>>> recorded_value("CN1CC[C@H](c2ccc(Cl)cc2)[C@@H](c2nc(-c3ccccc3)no2)C1")
6.30

Next compound, please.
Prompt: Form field - read-out: pKi; system: Sodium-dependent dopamine transporter (Rattus norvegicus, UniProt P23977); submitted item: Cc1noc([C@@H]2CN(C)CC[C@H]2c2ccc(Cl)cc2)n1
Completion: 6.02

---

Dear all, this message contains Ki results, target or system UniProt Q9WTR4.
Please give a number only; it is taken to be in nM.

>>> recorded_value("COC(=O)[C@@H]1CN(C)CC[C@H]1c1ccc(Cl)cc1")
396
>>> recorded_value("CC(C)c1noc([C@H]2CN(C)CC[C@@H]2c2ccc(Cl)cc2)n1")
778

Next molecule, please.
Prompt: Form field - read-out: Ki; system: UniProt Q9WTR4; submitted item: CC(C)c1noc([C@@H]2CN(C)CC[C@H]2c2ccc(Cl)cc2)n1
Completion: 2680

---

Dear all, this message contains Ki results, target or system Sodium-dependent serotonin transporter (Rattus norvegicus).

Solved entries (count: 2):
>>> recorded_value("CN1CC[C@H](c2ccc(Cl)cc2)[C@@H](c2nc(-c3ccc4c(c3)OCO4)no2)C1")
"> 3 µM"
>>> recorded_value("CN1CC[C@@H](c2ccc(Cl)cc2)[C@H](c2nc(-c3ccc(Br)cc3)no2)C1")
"> 3 µM"

Next compound, please.
Prompt: Form field - read-out: Ki; system: Sodium-dependent serotonin transporter (Rattus norvegicus); submitted item: CN1CC[C@H](c2ccc(Cl)cc2)[C@@H](c2nc(-c3ccc(Br)cc3)no2)C1
Completion: > 3 µM

---

Below, each entry is listed alongside its reported Ki.
biological target: Sodium-dependent dopamine transporter (Rattus norvegicus); assay: Inhibition of high affinity uptake of [3H]DA using rat nerve endings obtained from brain regions enriched in DAT.

>>> recorded_value("CN1CC[C@@H](c2ccc(Cl)cc2)[C@H](c2nc(-c3ccc(Cl)cc3)no2)C1")
"> 3 µM"
>>> recorded_value("CN1CC[C@@H](c2ccc(Cl)cc2)[C@H](c2nc(-c3ccc(Br)cc3)no2)C1")
"> 3 µM"

Next compound, please.
Prompt: Find the recorded Ki belonging to CN1CC[C@H](c2ccc(Cl)cc2)[C@@H](c2nc(-c3ccc4c(c3)OCO4)no2)C1 and report it.
Completion: > 3 µM
